Kindly supply the reported TGI values for the records listed here.
Test system: COLO 205 colon
TEST DETAILS: NCI tumour cell line growth inhibition, 48 h

Lookup: Need TGI of COc1ccc(C2=NN(C(=O)c3ccc(Cl)cc3)C(O)(c3cc(F)c(Cl)cc3Cl)C2)cc1 (stereo not given) , thanks.
Found: > 100 µM

Lookup: Need TGI of Cc1ccc2c(c1)C(O)(c1ccccc1)CCS2 (stereo not given) , thanks.
Found: > 100 µM

Lookup: Need TGI of CC(C)CC1NC(=O)CCC(NC(=O)C(Cc2ccc(O)cc2)NC(=O)OCc2ccccc2)C(=O)NC(Cc2ccccc2)C(=O)NC(Cc2ccccc2)NC1=O (stereo not given) , thanks.
Found: > 100 µM

Lookup: Need TGI of CC(C)(C)NC(=S)N/N=C/c1ccccn1 , thanks.
Found: > 100 µM

Lookup: Need TGI of Cc1cn(C2CC(O)C(COC(N)=O)O2)c(=O)[nH]c1=O (stereo not given) , thanks.
Found: > 100 µM

Lookup: Need TGI of CC(=O)/C=C/c1ccc(N(CCO)Cc2ccc(C(C)(C)C)cc2)cc1 , thanks.
Found: 129 µM

Lookup: Need TGI of CC(=N/NC(N)=S)/C(C)=N/NC(N)=S , thanks.
Found: > 100 µM

Lookup: Need TGI of CC[C@]1(Cc2ccc(OC)c(OC)c2)C=[N+]([O-])O[C@H](OCc2ccccc2)[C@@H]1OC(C)=O , thanks.
Found: 34.5 µM

Lookup: Need TGI of COc1nc2c(c(=O)[nH]1)N=C(c1ccc(Cl)cc1)CC(c1ccccc1)N2 (stereo not given) , thanks.
Found: > 100 µM

Lookup: Need TGI of CC1(C)CCC[C@@]2(C)C1CC[C@@]1(CO1)[C@@H]2/C=C\C(C=O)CC=O (stereo not given in full) , thanks.
Found: > 100 µM
